Tested on: LC3
Assay: LC3 marker assay (LC3-I to LC3-II conversion immunoblot);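 also: HeLa cells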
Assay type: cell-based
Set-up: key: −: activity not reported; 0: decreased vs. WT; +: similar to WT; ++: modest increase vs. WT; +++: significant increase vs. WT
Conditions: 30 μM; Table 8, control compound T25; second symbol
Where no end group is shown, it is not given here.

sequence string: VCNACFHIWH [Compound 72]
Activity (μM) 30, LC3 assay activity: 0/0

sequence string: VCNACFHIWH [Compound 74]
Activity (μM) 30, LC3 assay activity: ++

sequence string: VWNATFHIWH (not fully specified (N-terminus, C-terminus)) [Compound 5, likely pa-10mer]
Activity (μM) 30, LC3 assay activity: 0/0

sequence string: VCNACFHIWH [Compound 3]
Activity (μM) 30, LC3 assay activity: 0/0
